Assay: total protein half-life in vivo (active degradation + dilution); higher = more stable protein
Conditions: E. coli NCM3722 delta-lon; growth: N-lim chemostat; doubling time 6 h
// label = Met if total protein half-life in vivo is not less than 4 h, otherwise Not met

INSERT INTO assay_data (chain_sequence, assigned_category) VALUES
  ('MFQLSVQDIHPGEKAGDKEEAIRQVAAALVQAGNVAEGYVNGMLAREQQTSTFLGNGIAIPHGTTDTRDQVLKTGVQVFQFPEGVTWGDGQVAYVAIGIAASSDEHLGLLRQLTHVLSDDSVAEQLKSATTAEELRALLMGEKQSEQLKLDNEMLTLDIVASDLLTLQALNAARLKEAGAVDATFVTKAINEQPLNLGQGIWLSDSAEGNLRSAIAVSRAANAFDVDGETAAMLVSVAMNDDQPIAVLKRLADLLLDNKADRLLKADAATLLALLTSDDAPTDDVLSAEFVVRNEHGLHARPGTMLVNTIKQFNSDITVTNLDGTGKPANGRSLMKVVALGVKKGHRLRFTAQGADAEQALKAIGDAIAAGLGEGA', 'Met'),
  ('MSEQLVTPENVTTKDGKINLLDLNRQQMREFFKDLGEKPFRADQVMKWMYHYCCDNFDEMTDINKVLRGKLKEVAEIRAPEVVEEQRSSDGTIKWAIAVGDQRVETVYIPEDDRATLCVSSQVGCALECKFCSTAQQGFNRNLRVSEIIGQVWRAAKIVGAAKVTGQRPITNVVMMGMGEPLLNLNNVVPAMEIMLDDFGFGLSKRRVTLSTSGVVPALDKLGDMIDVALAISLHAPNDEIRDEIVPINKKYNIETFLAAVRRYLEKSNANQGRVTIEYVMLDHVNDGTEHAHQLAELLKDTPCKINLIPWNPFPGAPYGRSSNSRIDRFSKVLMSYGFTTIVRKTRGDDIDAACGQLAGDVIDRTKRTLRKRMQGEAIDIKAV', 'Not met'),
  ('MTTPTFDTIEAQASYGIGLQVGQQLSESGLEGLLPEALVAGIADALEGKHPAVPVDVVHRALREIHERADAVRRQRFQAMAAEGVKYLEENAKKEGVNSTESGLQFRVINQGEGAIPARTDRVRVHYTGKLIDGTVFDSSVARGEPAEFPVNGVIPGWIEALTLMPVGSKWELTIPQELAYGERGAGASIPPFSTLVFEVELLEIL [P0A9L3]', 'Met');

// next entry
Exercise: Does the reported total protein half-life in vivo for MSIRIIPQDELGSSEKRTADMIPPLLFPRLKNLYNRRAERLRELAENNPLGDYLRFAALIAHAQEVVLYDHPLEMDLTARIKEASAQGKPPLDIHVLPRDKHWQKLLMALIAELKPEMSGPALAVIENLEKASTQELEDMASALFASDFSSVSSDKAPFIWAALSLYWAQMANLIPGKARAEYGEQRQYCPVCGSMPVSSMVQIGTTQGLRYLHCNLCETEWHVVRVKCSNCEQSGKLHYWSLDDEQAAIKAESCDDCDTYLKILYQEKDPKIEAVADDLASLVLDARMEQEGYARSSINPFLFPGEGE fall at or above the 4 h mark?
Solution: Met

###

Test: total protein half-life in vivo (active degradation + dilution); higher = more stable protein
Settings: wild type E. coli NCM3722; growth: P-lim chemostat; doubling time 6 h
READOUT NAME: total protein half-life in vivo (h)
Express the result in h but write the number alone.

INSERT INTO results (chain_sequence, readout_name, test_value) VALUES
  ('MKKKILAFGLISALFCSTPAMADMNRTTKGALLGAGVGLLTGNGVNGVLKGAAVGAGVGAVTEKGRDGKNARKGAKVGAAVGAVTGVLTGNGLEGAIKGAVIGGTGGAILGKMK [Q7DFV3]', 'total protein half-life in vivo', 2.75),
  ('MDFSLTEEQELLLASIRELITTNFPEEYFRTCDQNGTYPREFMRALADNGISMLGVPEEFGGIPADYVTQMLALMEVSKCGAPAFLITNGQCIHSMRRFGSAEQLRKTAESTLETGDPAYALALTEPGAGSDNNSATTTYTRKNGKVYINGQKTFITGAKEYPYMLVLARDPQPKDPKKAFTLWWVDSSKPGIKINPLHKIGWHMLSTCEVYLDNVEVEESDMVGEEGMGFLNVMYNFEMERLINAARSTGFAECAFEDAARYANQRIAFGKPIGHNQMIQEKLALMAIKIDNMRNMVLKVAWQADQHQSLRTSAALAKLYCARTAMEVIDDAIQIMGGLGYTDEARVSRFWRDVRCERIGGGTDEIMIYVAGRQILKDYQNK [P0A9U8]', 'total protein half-life in vivo', 0.772);

Query sequence follows.
Exercise: # total protein half-life in vivo lookup, item MKIAFIGEAVSGFGGMETVIRDVITTFRQQHIQSEMFFFCRNDKMDKGWLEGIKYSCSFSNIRLGFLRRAKHIHALSKWLQEYQPDIVICIDVISCLFAAKARKKSGIDMPVFSWPHFSLDHKKHAEYITCADYHLAISSGIKQQMINRGVAESTINVIFNPVETKDSVIPAPEEGETATFIYVGRMKFEGQKRVKDLLDGLSQAKGNWKLHVLGDGSDFEKCQAYGRELNIDDRIVWYGWQQYPWELVQQDIEKVSALLLTSSFEGFPMTLLEALSWGIPCISADCVSGPADIIQPDVNGHLYQPGDIAGFVTLLNKYIAGEIHIEHEKIPASIDEFYQSKYYDRLHKVIISAISRRK
Solution: 6.21
